- Test system: SF-295
- experimentNotes: NCI 60 cell line panel screen (SRB)
- Type: cell-based, human
- experimentalParameters: SF-295 (CNS Cancer); TGI: PG=0

molecule	inequalitySymbol	Log10TGI50 (log10M)
C[C@@H]1CC[C@H]2[C@@H](C)C(CC(O)(COC(=O)CCC(=O)O)CC3OC4O[C@]5(C)CC[C@H]6[C@H](C)CC[C@@H]([C@H]3C)C46OO5)OC3O[C@]4(C)CCC1C32OO4 (stereo partly shown) [Compound 9, tertiary alcohol primary succinate ester]	<	−8.30
CC1CCC2C(C)C(CC(COC(=O)c3cc[n+]([O-])cc3)CC3OC4OC5(C)CCC6C(C)CCC(C3C)C46OO5)OC3OC4(C)CCC1C32OO4 (stereo not shown)	=	−4.77
CC1CCC2C(C)C(CC(CO)CC3OC4OC5(C)CCC6C(C)CCC(C3C)C46OO5)OC3OC4(C)CCC1C32OO4 (stereo not shown)	=	−4.80
CC1CCC2C(C)C(CC(O)(CO)CC3OC4OC5(C)CCC6C(C)CCC(C3C)C46OO5)OC3OC4(C)CCC1C32OO4 (stereo not shown)	=	−4.49
